System: MOLM-13 cells
Test: Cell growth inhibition, AML cell line MOLM-13 (CyQuant, day 7)
Format: cell-based
Conditions: Homo sapiens, 168 h; MOLM-13, day 7, CyQuant; read-out: MOLM13 GI50
ASSAY READOUT: GI50 (nM)
Give bare numbers, in nM.

These recorded examples may help you get a feel for the data.
Exercise: Requested read-out: GI50. Entry: CN1C[C@H](Nc2cnn(C)c(=O)c2Br)C[C@H](c2ccc(C(=O)N3CCC4(CC3)CCN(c3ccc(C5CCC(=O)NC5=O)cc3)CC4)cc2)C1 (stereo partly shown) [Compound 90]
Key: 0.9

Exercise: And the next one, CN1C[C@H](Nc2cnn(C)c(=O)c2Br)C[C@H](c2ccc(C(=O)N3CCC4(CC3)CCN(c3ccc(C5CCC(=O)NC5=O)cc3F)CC4)cc2)C1 (stereo partly shown) [Compound 146] ?
Key: 5.9

Exercise: Same lookup for Cc1cc(C2CCC(=O)NC2=O)ccc1N1CCC2(CCN(C(=O)c3ccc([C@H]4C[C@@H](Nc5cnn(C)c(=O)c5Cl)CN(C)C4)cc3)CC2)CC1 (stereo partly shown) [Compound 250] , please.
Key: 3.7

Exercise: Follow-up item: CN1C[C@H](Nc2cnn(C)c(=O)c2Br)C[C@H](c2ccc(C(=O)N3CCN(Cc4ccc(C(=O)Nc5ccc6c(c5)CN(C5CCC(=O)NC5=O)C6=O)cc4)CC3)cc2)C1 (stereo partly shown) [Compound 2-15]
Key: 5.2

Exercise: # iterate: CN1C[C@H](Nc2cnn(C)c(=O)c2Br)C[C@H](c2ccc(COc3ccc4c(c3)C(=O)N(C3CCC(=O)NC3=O)C4=O)cc2)C1 (stereo partly shown) [Compound 39]
Key: 5.6

Batch of 4 compounds: report GI50 for each.
1. CN1C[C@H](Nc2cnn(C)c(=O)c2Br)C[C@H](c2ccc(C(=O)N3CCC(CN4CCN(c5ccc6c(c5)C(=O)N(C5CCC(=O)NC5=O)C6=O)CC4)CC3)cc2)C1 (stereo partly shown) [Compound 40]
2. CN1C[C@H](Nc2cnn(C)c(=O)c2Br)C[C@H](c2ccc(CN3CCN(c4cccc([C@H]5CCC(=O)NC5=O)c4)CC3)cc2)C1 [Compound 84]
3. Cc1cc(N2CCC3(CCN(C(=O)c4ccc([C@H]5C[C@@H](Nc6cnn(C)c(=O)c6C)CN(C)C5)cc4)CC3)CC2)ccc1C1CCC(=O)NC1=O (stereo partly shown) [Compound 219]
4. CN1C[C@H](Nc2cnn(C)c(=O)c2Br)C[C@H](c2ccc(CN3CCC(Oc4ccc(C5CCC(=O)NC5=O)cc4)CC3)cc2)C1 (stereo partly shown) [Compound 86]

Key:
7.8
1.1
5.9
1.7

Give GI50 for each listed item.
1. COc1cc(N2CCC3(CCN(C(=O)c4ccc([C@H]5C[C@@H](Nc6cnn(C)c(=O)c6Cl)CN(C)C5)cc4)CC3)CC2)ccc1C1CCC(=O)NC1=O (stereo partly shown) [Compound 232]
2. COc1cc(C2CCC(=O)NC2=O)ccc1N1CCC2(CCN(C(=O)c3ccc([C@H]4C[C@@H](Nc5cnn(C)c(=O)c5Br)CN(C)C4)cc3)CC2)CC1 (stereo partly shown) [Compound 238]
3. CN1C[C@H](Nc2cnn(C)c(=O)c2Cl)C[C@H](c2ccc(C(=O)N3CCC4(CC3)CCN(c3ccc(C5CCC(=O)NC5=O)cn3)CC4)cc2)C1 (stereo partly shown) [Compound 2-52]
4. Cc1cc(N2CCC3(CCN(C(=O)c4ccc([C@H]5C[C@@H](Nc6cnn(C)c(=O)c6Cl)CN(C)C5)cc4)CC3)CC2)ccc1C1CCC(=O)NC1=O (stereo partly shown) [Compound 223]
5. CN1C[C@H](Nc2cnn(C)c(=O)c2Cl)C[C@H](c2ccc(C(=O)N3CCC4(CC3)CCN(c3ccc(OC5CCC(=O)NC5=O)cc3)CC4)cc2)C1 (stereo partly shown) [Compound 362]
6. CN1CC(Nc2cnn(C)c(=O)c2Br)CC(c2ccc(C(=O)N3CCC4(CC3)CCN(c3ccc(C5CCC(=O)NC5=O)cc3)CC4)cc2)C1 (stereo not shown) [Compound 437]
7. CN1C[C@H](Nc2cnn(C)c(=O)c2Cl)C[C@H](c2ccc(C(=O)N3CCC4(CC3)CCN(c3ccc5c(C6CCC(=O)NC6=O)nn(C)c5c3)CC4)cc2)C1 (stereo partly shown) [Compound 208]

Key:
1: 5.2; 2: 20; 3: 0.4; 4: 4.4; 5: 33.3; 6: 0.3; 7: 0.3
